- System: ATP;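 also: ATP exposure 15 min at 22 °C before imaging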
- assay text: switch fluorescence ratio, 500 uM ATP over buffer (Cy3 cluster intensity, sum of 5 cycles each) (fold (ratio)); higher = stronger signal-on switching upon ATP binding; sequences stand for … in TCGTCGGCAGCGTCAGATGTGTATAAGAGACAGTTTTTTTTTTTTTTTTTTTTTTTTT…TC
- cond: aptamer strand: ATP DNA aptamer (quencher-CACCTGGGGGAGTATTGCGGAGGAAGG + anchor), 100 nM annealed; ATP concentration: 500 uM
measure name: switch fluorescence ratio
In your answer, state the number alone without any accompanying words.

TTTAGTCGCG    0.967

**Q:** Param readout= switch fluorescence ratio; system= ATP; entry= TGTTGTAAAC ; returns value.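 Also: ATP exposure 15 min at 22 °C before imaging.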
**A:** 1.05

**Q:** Then AAGGATTGCG ?
**A:** 0.96

**Q:** Then TTTGTCGCGG ?
**A:** 1.02

**Q:** Then ACTGATGGGT ?
**A:** 1

**Q:** Then GGTTACTTTA ?
**A:** 1.07

**Q:** Then GGCATGAGAC ?
**A:** 1.06

**Q:** Then TTTTAAGTGC ?
**A:** 1

**Q:** Then CTAGTAAGCG ?
**A:** 0.998

**Q:** Then AAGGTTACGC ?
**A:** 1.05

**Q:** Then GCCTGGGGGG ?
**A:** 1.02

**Q:** Then CTAGAGGCGA ?
**A:** 1.03

**Q:** Then CGGATCGGAT ?
**A:** 0.976

**Q:** Then GGTTAGTGTC ?
**A:** 1.05

**Q:** Then ACTATGAGTT ?
**A:** 0.998

**Q:** Then GGGTTTTTGA ?
**A:** 1.02

**Q:** Then GCTGTTTTGG ?
**A:** 0.965

**Q:** Then AGGAAGGTTT ?
**A:** 0.993

**Q:** Then AAAAAATTTT ?
**A:** 1.01

**Q:** Then TGAGGGGAGG ?
**A:** 1.13

====

- Test system: ATP;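 also: ATP exposure 15 min at 22 °C before imaging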
- assay text: switch fluorescence ratio, 500 uM ATP over buffer (Cy3 cluster intensity, sum of 5 cycles each) (fold (ratio)); higher = stronger signal-on switching upon ATP binding; sequences stand for … in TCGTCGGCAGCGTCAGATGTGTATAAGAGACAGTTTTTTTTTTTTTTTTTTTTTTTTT…TC
- cond: aptamer strand: ATP DNA aptamer (quencher-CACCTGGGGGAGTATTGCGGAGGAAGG + anchor), 100 nM annealed; ATP concentration: 500 uM
Mark no for switch fluorescence ratio values under 1, and yes for everything at or above.

// below: answered sequences
GGCGCATGTC    yes
GCGTATTTGC    yes

**Q:** Determine whether measured switch fluorescence ratio meets or exceeds 1 for CCTGGGGTGT
**A:** yes

**Q:** Then AGAGGCTCAG ?
**A:** yes

**Q:** Then ATATATGTTT ?
**A:** no

**Q:** Then TGAAGTTGTA ?
**A:** no

**Q:** Then GAGTTTGACC ?
**A:** no

**Q:** Then ACGGGTGAGC ?
**A:** yes

**Q:** Then GGGATAGAGC ?
**A:** no

====

- System: ATP;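 also: ATP exposure 15 min at 22 °C before imaging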
- assay text: switch fluorescence ratio, 500 uM ATP over buffer (Cy3 cluster intensity, sum of 5 cycles each) (fold (ratio)); higher = stronger signal-on switching upon ATP binding; sequences stand for … in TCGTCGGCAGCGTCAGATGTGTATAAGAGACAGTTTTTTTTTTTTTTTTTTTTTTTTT…TC
- cond: aptamer strand: ATP DNA aptamer (quencher-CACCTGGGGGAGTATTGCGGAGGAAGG + anchor), 100 nM annealed; ATP concentration: 500 uM
measure name: switch fluorescence ratio
In your answer, state the number alone without any accompanying words.

GCAATTTAGA    1.02
AAAAATGACG    0.991
CCTGCGCACG    3.98
GTAATATCGG    0.998
TGATGAAAGA    0.996

**Q:** What does the record list as switch fluorescence ratio for CGGGTTATAA ?
**A:** 1.04

**Q:** Then GGGGGAAGGC ?
**A:** 1.15

**Q:** Then TTGCGTGTGG ?
**A:** 1.05

**Q:** Then AACAAATGAT ?
**A:** 1.01

**Q:** Then GTTAGGAATT ?
**A:** 0.985

**Q:** Then CGATTCTTGG ?
**A:** 0.999

**Q:** Then CTGTATTTGT ?
**A:** 1.03

**Q:** Then GATATCCGTA ?
**A:** 0.962

**Q:** Then ATTACGACTG ?
**A:** 1.06

**Q:** Then AGTAAGGGGC ?
**A:** 0.98

**Q:** Then GGTTCAGTG ?
**A:** 0.994

**Q:** Then GGGTGTAGAG ?
**A:** 1.05

**Q:** Then GTGGAAGAGT ?
**A:** 0.999

**Q:** Then TTTTCCTTGT ?
**A:** 1.08

**Q:** Then CTAGGTGGTT ?
**A:** 0.991

**Q:** Then TGGGAAATGT ?
**A:** 1.1

====

- System: ATP;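 also: ATP exposure 15 min at 22 °C before imaging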
- assay text: switch fluorescence ratio, 500 uM ATP over buffer (Cy3 cluster intensity, sum of 5 cycles each) (fold (ratio)); higher = stronger signal-on switching upon ATP binding; sequences stand for … in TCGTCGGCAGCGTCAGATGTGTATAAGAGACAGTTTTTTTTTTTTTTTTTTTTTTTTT…TC
- cond: aptamer strand: ATP DNA aptamer (quencher-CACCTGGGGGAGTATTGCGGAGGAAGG + anchor), 100 nM annealed; ATP concentration: 500 uM
measure name: switch fluorescence ratio
In your answer, state the number alone without any accompanying words.

Previously resolved entries follow.
CGCTCTAAAA    1.01
CCCATAGTAT    1.01
CGTACGGTAA    1.09
GGAGGATACG    1.02
TCAAGATA    1.13

Alright, here's another sequence for you.
**Q:** Param readout= switch fluorescence ratio; system= ATP; entry= TTTTTCAAGG ; returns value.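 Also: ATP exposure 15 min at 22 °C before imaging.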
**A:** 1.01

====

Reported switch fluorescence ratio values for the following sequences.
- Tested on: ATP;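 also: ATP exposure 15 min at 22 °C before imaging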
- assay text: switch fluorescence ratio, 500 uM ATP over buffer (Cy3 cluster intensity, sum of 5 cycles each) (fold (ratio)); higher = stronger signal-on switching upon ATP binding; sequences stand for … in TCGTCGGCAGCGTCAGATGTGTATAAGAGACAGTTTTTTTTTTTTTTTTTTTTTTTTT…TC
- cond: aptamer strand: ATP DNA aptamer (quencher-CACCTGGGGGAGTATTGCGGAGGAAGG + anchor), 100 nM annealed; ATP concentration: 500 uM
In your answer, state the number alone without any accompanying words.

CGGTCTAATT    0.999
GCCTGGAGTA    1.03
ACTGGAGGAT    1.05
TTCCACCAAA    1.07
GTGGGTTGGG    1.09

**Q:** What does the record list as switch fluorescence ratio for GGGGAGTACT ?
**A:** 1.34

**Q:** Then GCAGGGGGGC ?
**A:** 1.03

**Q:** Then CGTTTTTCGG ?
**A:** 0.971

**Q:** Then TGGCCACTT ?
**A:** 0.986

**Q:** Then ACATGAGTCT ?
**A:** 1.02

**Q:** Then AGGAGGTATT ?
**A:** 0.99

**Q:** Then GAACATGATA ?
**A:** 1.02

**Q:** Then TATTAAGG ?
**A:** 1.01

**Q:** Then AATGGTTTTC ?
**A:** 0.995

**Q:** Then AAGGGGGATG ?
**A:** 1.01

**Q:** Then TTGCGGAGGA ?
**A:** 1.01

**Q:** Then CTGGGCCGTC ?
**A:** 1.01

**Q:** Then GGGGGCTAAA ?
**A:** 1.02

**Q:** Then GGACCCAATG ?
**A:** 0.986

**Q:** Then TTTATACCAA ?
**A:** 1.04

**Q:** Then ATGATTGGTT ?
**A:** 1

====

- System: ATP;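 also: ATP exposure 15 min at 22 °C before imaging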
- assay text: switch fluorescence ratio, 500 uM ATP over buffer (Cy3 cluster intensity, sum of 5 cycles each) (fold (ratio)); higher = stronger signal-on switching upon ATP binding; sequences stand for … in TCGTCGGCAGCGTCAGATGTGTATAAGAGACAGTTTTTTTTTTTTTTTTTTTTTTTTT…TC
- cond: aptamer strand: ATP DNA aptamer (quencher-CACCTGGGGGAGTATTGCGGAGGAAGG + anchor), 100 nM annealed; ATP concentration: 500 uM
Reported switch fluorescence ratio values for the following sequences.
In your answer, state the number alone without any accompanying words.

Previously resolved entries follow.
TTTTAGGGGA    1.01
TTTGAGAAGG    0.948
TTTTTGCGGT    0.978
ACGGTATCTT    1.13
GGGCACGCTG    1.03

**Q:** What does the record list as switch fluorescence ratio for CGGGGTAATG ?
**A:** 0.979

**Q:** Then AGCTGGGTTT ?
**A:** 1

**Q:** Then AACCTCTATT ?
**A:** 1.03

**Q:** Then TCAGTGGATG ?
**A:** 0.979

**Q:** Then AGGCGGATGT ?
**A:** 0.978

**Q:** Then GAGTCGCCTG ?
**A:** 0.991

**Q:** Then ACTTTTAGGT ?
**A:** 1.02

**Q:** Then TTAGGAGAAT ?
**A:** 0.999

**Q:** Then GAGTTGGGTC ?
**A:** 1.02

**Q:** Then TTACCAGTTG ?
**A:** 1.04

**Q:** Then GATGTGCTTG ?
**A:** 1.01

**Q:** Then GCGATGCTGC ?
**A:** 1.24

**Q:** Then TATGACGGGG ?
**A:** 0.962

**Q:** Then TGAAATAAG ?
**A:** 0.979

**Q:** Then GTCTTTAAGG ?
**A:** 0.964

**Q:** Then TGGCGTAGTT ?
**A:** 0.991
